- TESTED TARGET: GluN1/GluN2C receptors (Rattus norvegicus, UniProt P35439+Q00961)
- Construct: expressed in transfected cells; host or cells: HEK293
- PROTOCOL: Patch-clamp inhibition of GluN1/GluN2C receptors in transfected HEK293 cells
- Assay type: cell-based
- SETUP CONDITIONS: concentration-response, 1 mM glutamate and 10 μM glycine
OBSERVED PROPERTY: pIC50
Numbers only, as −log10 of the molar value.

What value of measured pIC50 is listed for C[C@@]12CCC[C@H]1[C@@H]1CC[C@@H]3C[C@H](NC(=O)[C@@H](N)CC(=O)O)CC[C@]3(C)[C@H]1CC2 ? 5.14

----------
- TESTED TARGET: GluN1/GluN2D receptors (Rattus norvegicus, UniProt P35439+Q62645)
- Construct: expressed in transfected cells; host or cells: HEK293
- Sequence (Q62645 28-1323, other chains not shown): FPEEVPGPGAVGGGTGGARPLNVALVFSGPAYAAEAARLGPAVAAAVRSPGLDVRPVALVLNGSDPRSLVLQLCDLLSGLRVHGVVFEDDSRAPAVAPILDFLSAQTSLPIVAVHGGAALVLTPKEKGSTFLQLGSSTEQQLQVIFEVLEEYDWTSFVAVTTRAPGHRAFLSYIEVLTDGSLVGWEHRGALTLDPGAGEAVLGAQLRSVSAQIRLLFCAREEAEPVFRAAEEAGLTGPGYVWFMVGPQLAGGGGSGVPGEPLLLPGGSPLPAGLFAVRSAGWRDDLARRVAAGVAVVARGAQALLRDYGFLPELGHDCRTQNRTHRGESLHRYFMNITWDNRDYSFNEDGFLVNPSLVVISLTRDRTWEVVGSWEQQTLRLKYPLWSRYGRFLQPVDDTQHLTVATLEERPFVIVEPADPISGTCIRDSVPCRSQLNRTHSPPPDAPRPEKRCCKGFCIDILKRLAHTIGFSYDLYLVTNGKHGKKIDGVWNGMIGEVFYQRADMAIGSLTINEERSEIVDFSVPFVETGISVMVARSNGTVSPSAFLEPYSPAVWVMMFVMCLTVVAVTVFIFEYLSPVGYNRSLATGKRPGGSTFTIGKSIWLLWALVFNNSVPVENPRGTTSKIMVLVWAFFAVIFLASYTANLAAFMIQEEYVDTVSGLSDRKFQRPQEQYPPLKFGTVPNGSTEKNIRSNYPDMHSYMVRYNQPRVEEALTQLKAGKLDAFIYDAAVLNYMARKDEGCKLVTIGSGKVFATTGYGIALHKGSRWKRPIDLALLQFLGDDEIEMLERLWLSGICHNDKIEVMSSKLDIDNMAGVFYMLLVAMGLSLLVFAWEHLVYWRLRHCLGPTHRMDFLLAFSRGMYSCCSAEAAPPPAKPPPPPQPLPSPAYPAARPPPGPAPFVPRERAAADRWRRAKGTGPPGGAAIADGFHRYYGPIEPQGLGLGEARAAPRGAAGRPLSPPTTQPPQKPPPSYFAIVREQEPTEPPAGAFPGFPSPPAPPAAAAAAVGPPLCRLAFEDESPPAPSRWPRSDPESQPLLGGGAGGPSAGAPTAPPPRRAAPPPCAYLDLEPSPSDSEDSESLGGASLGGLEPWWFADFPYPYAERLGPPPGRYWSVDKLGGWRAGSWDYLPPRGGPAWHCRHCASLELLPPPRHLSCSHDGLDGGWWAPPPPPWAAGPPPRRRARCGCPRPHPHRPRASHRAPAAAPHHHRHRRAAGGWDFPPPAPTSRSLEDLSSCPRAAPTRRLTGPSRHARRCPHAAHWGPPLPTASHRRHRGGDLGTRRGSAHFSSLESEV
- PROTOCOL: Patch-clamp inhibition of GluN1/GluN2D receptors in transfected HEK293 cells
- Assay type: cell-based
- SETUP CONDITIONS: concentration-response, 1 mM glutamate and 10 μM glycine
OBSERVED PROPERTY: IC50 (µM)
One number for each entry, in µM.

Give GluN1/GluN2D receptors (Rattus norvegicus, UniProt P35439+Q62645) IC50 for C[C@@]12CCC[C@H]1[C@@H]1CC[C@@H]3C[C@H](NC(=O)[C@@H](N)CC(=O)O)CC[C@]3(C)[C@H]1CC2 8.4

----------
- TESTED TARGET: GluN1/GluN2A receptors (Rattus norvegicus, UniProt P35439+Q00959)
- Construct: expressed in transfected cells; host or cells: HEK293
- Sequence (Q00959 23-1464, other chains not shown): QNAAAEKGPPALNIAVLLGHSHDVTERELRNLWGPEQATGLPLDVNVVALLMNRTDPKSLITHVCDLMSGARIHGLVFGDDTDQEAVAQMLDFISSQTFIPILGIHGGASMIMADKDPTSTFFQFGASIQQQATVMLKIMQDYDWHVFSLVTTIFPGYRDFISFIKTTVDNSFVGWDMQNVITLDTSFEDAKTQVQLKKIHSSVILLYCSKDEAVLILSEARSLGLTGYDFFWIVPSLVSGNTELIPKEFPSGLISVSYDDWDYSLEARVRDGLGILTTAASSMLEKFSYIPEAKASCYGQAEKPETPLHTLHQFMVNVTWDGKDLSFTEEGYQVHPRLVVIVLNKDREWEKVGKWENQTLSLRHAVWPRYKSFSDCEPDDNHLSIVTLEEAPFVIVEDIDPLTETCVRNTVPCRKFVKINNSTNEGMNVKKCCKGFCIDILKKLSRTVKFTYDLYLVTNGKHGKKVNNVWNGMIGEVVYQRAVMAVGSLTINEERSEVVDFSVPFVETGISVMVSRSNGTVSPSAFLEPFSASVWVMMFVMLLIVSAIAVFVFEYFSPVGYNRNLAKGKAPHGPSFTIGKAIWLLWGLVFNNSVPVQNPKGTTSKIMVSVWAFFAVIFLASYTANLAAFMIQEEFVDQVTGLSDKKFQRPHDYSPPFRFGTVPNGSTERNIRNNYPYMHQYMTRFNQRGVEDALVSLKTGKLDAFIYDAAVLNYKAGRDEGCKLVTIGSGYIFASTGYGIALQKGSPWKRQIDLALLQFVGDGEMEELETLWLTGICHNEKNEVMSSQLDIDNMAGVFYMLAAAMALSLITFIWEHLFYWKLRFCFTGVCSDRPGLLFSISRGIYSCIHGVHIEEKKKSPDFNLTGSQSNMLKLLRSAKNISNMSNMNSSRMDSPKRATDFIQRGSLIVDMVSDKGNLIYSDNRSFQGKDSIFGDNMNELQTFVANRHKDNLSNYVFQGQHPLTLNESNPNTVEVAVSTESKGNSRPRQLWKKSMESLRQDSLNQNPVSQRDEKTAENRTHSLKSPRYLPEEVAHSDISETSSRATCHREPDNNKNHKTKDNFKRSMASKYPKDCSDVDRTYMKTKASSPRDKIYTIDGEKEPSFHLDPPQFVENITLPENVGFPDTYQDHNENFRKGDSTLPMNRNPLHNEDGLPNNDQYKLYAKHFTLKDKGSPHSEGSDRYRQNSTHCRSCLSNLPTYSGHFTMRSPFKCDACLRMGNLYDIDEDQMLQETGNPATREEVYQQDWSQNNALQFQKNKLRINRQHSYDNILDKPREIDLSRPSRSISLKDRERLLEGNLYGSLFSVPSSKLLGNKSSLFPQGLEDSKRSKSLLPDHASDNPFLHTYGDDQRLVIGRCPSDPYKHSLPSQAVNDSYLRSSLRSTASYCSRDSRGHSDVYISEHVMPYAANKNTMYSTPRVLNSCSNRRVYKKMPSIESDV
- PROTOCOL: Patch-clamp inhibition of GluN1/GluN2A receptors in transfected HEK293 cells
- Assay type: cell-based
- SETUP CONDITIONS: concentration-response, 1 mM glutamate and 10 μM glycine
OBSERVED PROPERTY: IC50 (µM)
Numbers only, in µM.

Item: C[C@@]12CCC[C@H]1[C@@H]1CC[C@@H]3C[C@H](NC(=O)[C@@H](N)CC(=O)O)CC[C@]3(C)[C@H]1CC2 Test system: GluN1/GluN2A receptors (Rattus norvegicus, UniProt P35439+Q00959) Read-out: IC50 Value: ? 6.5

----------
- TESTED TARGET: GluN1/GluN2B receptors (Rattus norvegicus, UniProt P35439+Q00960)
- Construct: expressed in transfected cells; host or cells: HEK293
- Sequence (Q00960 27-1482, other chains not shown): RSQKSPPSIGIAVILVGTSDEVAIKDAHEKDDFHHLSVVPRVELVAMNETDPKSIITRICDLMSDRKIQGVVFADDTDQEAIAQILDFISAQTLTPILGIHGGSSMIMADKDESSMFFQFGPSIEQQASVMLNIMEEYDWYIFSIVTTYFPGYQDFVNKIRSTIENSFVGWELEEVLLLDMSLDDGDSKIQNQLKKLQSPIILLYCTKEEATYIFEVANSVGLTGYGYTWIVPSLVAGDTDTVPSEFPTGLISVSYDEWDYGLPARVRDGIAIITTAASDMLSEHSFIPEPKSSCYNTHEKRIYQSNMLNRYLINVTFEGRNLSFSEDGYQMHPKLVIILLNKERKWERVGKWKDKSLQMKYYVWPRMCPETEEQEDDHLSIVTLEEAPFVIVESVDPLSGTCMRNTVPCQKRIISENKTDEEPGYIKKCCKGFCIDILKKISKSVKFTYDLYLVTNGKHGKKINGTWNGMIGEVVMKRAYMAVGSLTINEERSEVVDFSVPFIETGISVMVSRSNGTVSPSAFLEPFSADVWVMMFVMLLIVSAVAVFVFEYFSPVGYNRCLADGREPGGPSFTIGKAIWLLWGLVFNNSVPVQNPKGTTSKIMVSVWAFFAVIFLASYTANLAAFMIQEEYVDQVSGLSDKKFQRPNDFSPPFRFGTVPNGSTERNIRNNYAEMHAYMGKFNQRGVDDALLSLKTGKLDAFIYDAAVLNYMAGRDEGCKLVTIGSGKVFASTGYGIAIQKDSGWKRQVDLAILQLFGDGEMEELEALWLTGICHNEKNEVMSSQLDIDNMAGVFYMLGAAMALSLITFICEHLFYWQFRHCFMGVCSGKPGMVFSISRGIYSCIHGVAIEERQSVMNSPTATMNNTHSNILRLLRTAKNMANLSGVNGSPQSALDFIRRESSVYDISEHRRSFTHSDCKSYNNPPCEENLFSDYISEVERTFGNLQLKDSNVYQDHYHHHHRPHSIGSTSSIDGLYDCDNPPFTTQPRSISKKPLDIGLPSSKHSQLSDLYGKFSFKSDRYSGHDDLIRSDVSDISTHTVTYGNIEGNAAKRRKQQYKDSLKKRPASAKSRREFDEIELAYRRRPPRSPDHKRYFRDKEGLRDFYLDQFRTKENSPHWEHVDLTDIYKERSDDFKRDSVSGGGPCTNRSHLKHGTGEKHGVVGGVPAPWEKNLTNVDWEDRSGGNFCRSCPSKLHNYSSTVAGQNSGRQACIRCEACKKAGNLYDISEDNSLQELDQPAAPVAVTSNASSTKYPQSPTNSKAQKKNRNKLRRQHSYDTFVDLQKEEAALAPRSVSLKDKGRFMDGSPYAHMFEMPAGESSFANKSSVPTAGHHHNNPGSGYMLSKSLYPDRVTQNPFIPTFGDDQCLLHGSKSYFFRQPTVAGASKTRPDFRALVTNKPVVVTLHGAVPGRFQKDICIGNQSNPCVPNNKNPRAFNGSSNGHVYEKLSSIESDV
- PROTOCOL: Patch-clamp inhibition of glutamate responses of GluN1/GluN2B receptors in transfected HEK293 cells
- Assay type: cell-based
OBSERVED PROPERTY: ΔGexp (kcal/mol)
Answers are plain numbers, in kcal/mol.

Look over these answered cases.
1) CC(C)(C)OC(=O)N[C@@H](CCC(=O)O)C(=O)N[C@@H]1CC[C@@]2(C)[C@H](CC[C@@H]3[C@@H]4CCC[C@@]4(C)CC[C@@H]32)C1 = -7.22
2) C[C@@]12CCC[C@H]1[C@@H]1CC[C@@H]3C[C@H](NC(=O)CC(=O)O)CC[C@]3(C)[C@H]1CC2 = -6.59
3) C[C@@]12CCC[C@H]1[C@@H]1CC[C@@H]3C[C@H](NC(=O)C[C@H](N)C(=O)O)CC[C@]3(C)[C@H]1CC2 = -7.27
4) C[C@@]12CCC[C@H]1[C@@H]1CC[C@@H]3C[C@H](NC(=O)CCC(=O)O)CC[C@]3(C)[C@H]1CC2 = -6.78
5) CC(C)(C)OC(=O)N[C@@H](CC(=O)O)C(=O)N[C@@H]1CC[C@@]2(C)[C@H](CC[C@H]3[C@@H]4CCC[C@@]4(C)CC[C@@H]32)C1 = -7.22
6) CC(C)(C)OC(=O)N[C@H](CCC(=O)N[C@@H]1CC[C@@]2(C)[C@H](CC[C@H]3[C@@H]4CCC[C@@]4(C)CC[C@@H]32)C1)C(=O)O = -7.49
7) CC(C)(C)OC(=O)N[C@@H](CC(=O)N[C@@H]1CC[C@@]2(C)[C@H](CC[C@H]3[C@@H]4CCC[C@@]4(C)CC[C@@H]32)C1)C(=O)O = -7.33
8) C[C@@]12CCC[C@H]1[C@@H]1CC[C@@H]3C[C@H](NC(=O)CCCC(=O)O)CC[C@]3(C)[C@H]1CC2 = -6.92

For every listed record, write down its ΔGexp.
1. C[C@@]12CCC[C@H]1[C@@H]1CC[C@@H]3C[C@H](NC(=O)[C@@H](N)CC(=O)O)CC[C@]3(C)[C@H]1CC2
2. C[C@@]12CCC[C@H]1[C@@H]1CC[C@@H]3C[C@H](NC(=O)C(=O)O)CC[C@]3(C)[C@H]1CC2
3. C[C@@]12CCC[C@H]1[C@@H]1CC[C@@H]3C[C@H](NC(=O)[C@@H](N)CCC(=O)O)CC[C@]3(C)[C@H]1CC2

1. -7.29
2. -6.39
3. -8.02

----------
- TESTED TARGET: GluN1/GluN2B receptors (Rattus norvegicus, UniProt P35439+Q00960)
- Construct: expressed in transfected cells; host or cells: HEK293
- PROTOCOL: Patch-clamp inhibition of glutamate responses of GluN1/GluN2B receptors in transfected HEK293 cells
- Type: cell-based
- SETUP CONDITIONS: concentration-response, 1 mM glutamate and 10 μM glycine; read-out: IC50 ±SD
OBSERVED PROPERTY: IC50 (µM)
Answers are plain numbers, in µM.

Would you mind telling me what IC50 value was observed for C[C@@]12CCC[C@H]1[C@@H]1CC[C@@H]3C[C@H](NC(=O)[C@@H](N)CC(=O)O)CC[C@]3(C)[C@H]1CC2 ? 7.4

----------
- PROTOCOL: Plasma stability, human plasma
- Assay type: in vitro ADME
- SETUP CONDITIONS: human plasma, 8 h, 37°C; read-out: Plasma stability (% remaining after 8 h), Human
OBSERVED PROPERTY: remaining at 8 h, 42.1 μg/mL
# answer = value followed by unit

1) CC(=O)C1CCC2C3CCC4CC(OC(=O)C(N)CCC(=O)O)CCC4(C)C3CCC12C (centres unmarked) [PAG, pregnanolone glutamate, reference compound] = 94%

Could you tell me which remaining at 8 h, 42.1 μg/mL is on file for C[C@@]12CCC[C@H]1[C@@H]1CC[C@@H]3C[C@H](NC(=O)C(=O)O)CC[C@]3(C)[C@H]1CC2 [Compound 1] ? 100%

----------
- PROTOCOL: Plasma stability, rat plasma
- Format: in vitro ADME
- SETUP CONDITIONS: rat plasma, 8 h, 37°C; read-out: Plasma stability (% remaining after 8 h), Rat
OBSERVED PROPERTY: remaining at 8 h, 42.1 μg/mL (%)
One number for each entry, in %.

1) CC(=O)C1CCC2C3CCC4CC(OC(=O)C(N)CCC(=O)O)CCC4(C)C3CCC12C (centres unmarked) [PAG, pregnanolone glutamate, reference compound] = 82

Fill blank: measured remaining at 8 h, 42.1 μg/mL of the compound C[C@@]12CCC[C@H]1[C@@H]1CC[C@@H]3C[C@H](NC(=O)C(=O)O)CC[C@]3(C)[C@H]1CC2 is ____. 100

----------
- System: HepG2 cells
- PROTOCOL: Mitotoxicity, XTT viability in glucose vs galactose medium
- SETUP CONDITIONS: 24 h, HepG2; index higher than 3 indicates potential mitochondrial toxicity
OBSERVED PROPERTY: Glu/Gal index (fold change)
One number for each entry.

The following compounds have reported results that may help.
1) C[C@@]12CCC[C@H]1[C@@H]1CC[C@@H]3C[C@H](NC(=O)CC(=O)O)CC[C@]3(C)[C@H]1CC2 [Compound 2] = 1.32
2) CC(C)(C)OC(=O)N[C@H](CCC(=O)N[C@@H]1CC[C@@]2(C)[C@H](CC[C@H]3[C@@H]4CCC[C@@]4(C)CC[C@@H]32)C1)C(=O)O [Compound 11] = 1
3) CC(=O)C1CCC2C3CCC4CC(OC(=O)C(N)CCC(=O)O)CCC4(C)C3CCC12C (stereo not drawn) [PAG, pregnanolone glutamate, reference compound] = 1.97
4) C[C@@]12CCC[C@H]1[C@@H]1CC[C@@H]3C[C@H](NC(=O)C(=O)O)CC[C@]3(C)[C@H]1CC2 [Compound 1] = 1.97
5) C[C@@]12CCC[C@H]1[C@@H]1CC[C@@H]3C[C@H](NC(=O)[C@@H](N)CCC(=O)O)CC[C@]3(C)[C@H]1CC2 [Compound 8] = 1.04

Now consider the entry below.
Find the recorded Glu/Gal index (fold change) belonging to CS(=O)(=O)Nc1ccc([N+](=O)[O-])cc1Oc1ccccc1 [Nimesulide, nimesulide, reference compound] and report it. 3.88
